Cited source: patent US20250368745A1

Answer each item with its documented EC50 (nM), HEK293 IL-18 Reporter Assay (SEAP).
# Target: T1, human IL-18BP (interleukin-18 binding protein, isoform A) (human, UniProt O95998 31-194)
# T1 sequence: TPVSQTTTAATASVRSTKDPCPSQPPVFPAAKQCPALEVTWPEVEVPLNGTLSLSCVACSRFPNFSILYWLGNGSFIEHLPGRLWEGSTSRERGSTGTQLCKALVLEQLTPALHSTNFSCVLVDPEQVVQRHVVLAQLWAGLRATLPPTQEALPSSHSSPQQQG
# Assay summary: cell-based or functional assay
One number for each entry, in nM.

{"columns": ["Binder", "U", "Obs value"],
 "data": [
  ["SA04a (antibody, human IgG1, V domains shown, murine variable regions on human IgG1 kappa constant regions) VH: QIQFVQSGPEVKTPGETVKISCKASVYTFTEYPMHWLKQAPGEDFEWMGWIHTYSGEPTYADDFKGRFAFSLETSASTAYLQINNLKTEDTATYFCARGRYYGALDYWGQGTALT VL: DIQMTQTPSSLSASLGDRVTISCRASQDISNYLNWYQQKPDGTVKLLIYYTSRLHSGVPSRFSGSGSGTDYSLTISNLEQEDVATYFCQHGNTLPRTFGGGTKLEIK", "nM", 0.1],
  ["SA32a (antibody, human IgG1, V domains shown, murine variable regions on human IgG1 kappa constant regions) VH: EVQLQQSGPELVKTGASVKISCKASGYSFTGYYMHWVKQSHGKSLEWIGYISCYNGATSYNQKFKGKATFTVDTSSSTAYMQFNSLTSEDSAVYYCAITLHYAMDYWGQGTSVAS VL: DIVMTQAAFSNPVTLGTSASISCRSSKSLLHSNGITYLYWYLQKPGQSPQLLIYQMSNLASGVPDRFSSSGSGTDFTLRISRVEAEDVGVYYCAQNLELPWTFGGGTKLEIK", "nM", 6.82]
]}

Note: attention shifts to another entry.
Query: Report EC50 (nM), HEK293 IL-18 Reporter Assay (SEAP) for SA34a (antibody, human IgG1, V domains shown, murine variable regions on human IgG1 kappa constant regions) VH: QVQLQQSGAELARPGASVKLSCKASGYTFTDYYINWVKQRTGQGLEWIGEIYPGSGNTYYNEKFKGKATLTADKSSSTAYMQLSSLTSEDSAVYFCARGYYGRFAYWGQGTLVTVSA VL: DIVMTQAAFSNPVTLGTSASISCRSSKSLLHSNGITYLYWYLQKPGQSPQLLIYQMSNLASGVPDRFSSSGSGTDFTLRISRVEAEDVGVYYCDQNLELPFTFGSGTKLEIK please.
Response: 5.02
